- test.method.notes: self-splicing fitness, log relative to wild type (ln ratio); higher = more splicing; Tetrahymena group I intron in knt gene, E. coli kanamycin selection, DiMSum; sequences stand for … in CUCUCU…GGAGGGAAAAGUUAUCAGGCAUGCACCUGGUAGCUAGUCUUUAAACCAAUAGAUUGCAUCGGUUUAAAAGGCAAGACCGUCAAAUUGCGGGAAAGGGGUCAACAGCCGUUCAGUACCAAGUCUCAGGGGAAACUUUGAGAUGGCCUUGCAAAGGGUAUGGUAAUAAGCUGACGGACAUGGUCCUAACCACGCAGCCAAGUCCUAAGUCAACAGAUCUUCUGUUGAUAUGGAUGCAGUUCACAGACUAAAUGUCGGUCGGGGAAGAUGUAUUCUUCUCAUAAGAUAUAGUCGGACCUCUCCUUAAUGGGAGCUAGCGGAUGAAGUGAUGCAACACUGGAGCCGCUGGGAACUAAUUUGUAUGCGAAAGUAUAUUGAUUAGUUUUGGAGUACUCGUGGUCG;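 further: selection with 25 µg/mL kanamycin versus none on LB agar overnight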
- stated.conditions: 30 °C
metric: self-splicing fitness (ln)
Answers are plain numbers.

{"sequence.entry": "UUUAAGCAAUAUUACGUAAG", "numeric.result": -0.0425}

I have 2 sequences here; please give me self-splicing fitness (ln) for each one.
1. UACCAGCAAUAUUACGUCUG
2. AUCUAGCAAUAUUACGGCAU

Return:
1. -3.46
2. 0.455

I have 4 sequences here; please give me self-splicing fitness (ln) for each one.
1. UUCCAGCAAUAUUACGAGAG
2. CGAUAGCAAUAUUACGUCAC
3. GCGAAGCAAUAUUACGUGCC
4. GUCUAGCAAUAUUACGCGUU

Return:
1. -1.82
2. -3.44
3. -3.73
4. -0.17

Enquiry: // query self-splicing fitness (ln) value for entry UGAUAGCAAUAUUACGUCAU
Return: -3.03

###

- test.method.notes: self-splicing fitness, log relative to wild type (ln ratio); higher = more splicing; Tetrahymena group I intron in knt gene, E. coli kanamycin selection, DiMSum; sequences stand for … in CUCUCU…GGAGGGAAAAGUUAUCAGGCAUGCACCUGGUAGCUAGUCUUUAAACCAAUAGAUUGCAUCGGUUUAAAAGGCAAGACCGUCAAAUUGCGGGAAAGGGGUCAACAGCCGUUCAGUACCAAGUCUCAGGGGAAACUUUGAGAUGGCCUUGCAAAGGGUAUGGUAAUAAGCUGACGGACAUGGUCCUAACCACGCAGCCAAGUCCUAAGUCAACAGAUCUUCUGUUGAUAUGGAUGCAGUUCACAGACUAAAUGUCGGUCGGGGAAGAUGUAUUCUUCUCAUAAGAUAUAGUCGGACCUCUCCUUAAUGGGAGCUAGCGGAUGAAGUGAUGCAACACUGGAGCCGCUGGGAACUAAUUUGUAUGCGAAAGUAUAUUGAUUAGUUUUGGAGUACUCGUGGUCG
- stated.conditions: 30 °C
Okay, here is how we bin by self-splicing fitness (ln): small value: < -3; mid value: ≥ -3 and < -2; large value: ≥ -2

Here's what some known entries look like.
{"sequence.entry": "UAGAAGCAAUAUUACGCGUC", "discrete.label": "mid value"}
{"sequence.entry": "CUUGAGCAAUAUUACGCAGU", "discrete.label": "mid value"}
{"sequence.entry": "CACGAGCAAUAUUACGCCGG", "discrete.label": "small value"}
{"sequence.entry": "GUCGAGCAAUAUUACGUAGA", "discrete.label": "mid value"}
{"sequence.entry": "CGGUAGCAAUAUUACGAAUU", "discrete.label": "mid value"}
{"sequence.entry": "GUUGAGCAAUAUUACGCUAU", "discrete.label": "mid value"}
{"sequence.entry": "UCAGAGCAAUAUUACGCGAG", "discrete.label": "mid value"}
{"sequence.entry": "CUCCAGCAAUAUUACGUUGC", "discrete.label": "small value"}

Enquiry: Using the reported self-splicing fitness (ln), which band applies to GGACAGCAAUAUUACGGGGU ?
Return: small value

Enquiry: Same again, this time with CUCUAGCAAUAUUACGGAGG
Return: mid value

Enquiry: Same again, this time with UGUCAGCAAUAUUACGGGCG
Return: large value

Enquiry: Same again, this time with CACGAGCAAUAUUACGGGGA
Return: small value

Enquiry: Same again, this time with AUUCAGCAAUAUUACGCAGA
Return: mid value

Enquiry: Same again, this time with CCUAAGCAAUAUUACGCCUC
Return: mid value

Enquiry: Same again, this time with UCAAAGCAAUAUUACGCGCG
Return: large value

Enquiry: Same again, this time with CAAAAGCAAUAUUACGUACA
Return: large value

###

- test.method.notes: self-splicing fitness, log relative to wild type (ln ratio); higher = more splicing; Tetrahymena group I intron in knt gene, E. coli kanamycin selection, DiMSum; sequences stand for … in CUCUCU…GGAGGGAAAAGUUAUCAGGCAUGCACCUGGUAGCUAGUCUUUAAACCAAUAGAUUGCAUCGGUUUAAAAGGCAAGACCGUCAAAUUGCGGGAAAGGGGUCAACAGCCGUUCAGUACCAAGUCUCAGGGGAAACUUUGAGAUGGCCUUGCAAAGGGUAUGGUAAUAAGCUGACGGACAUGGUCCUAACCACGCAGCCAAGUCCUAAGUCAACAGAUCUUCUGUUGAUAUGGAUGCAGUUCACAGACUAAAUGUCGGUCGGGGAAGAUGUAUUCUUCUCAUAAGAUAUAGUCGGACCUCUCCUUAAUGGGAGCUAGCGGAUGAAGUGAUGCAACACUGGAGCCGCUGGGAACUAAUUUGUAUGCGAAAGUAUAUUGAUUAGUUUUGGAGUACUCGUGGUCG
- stated.conditions: 37 °C
metric: self-splicing fitness (ln)
Numbers only.

Example results:
{"sequence.entry": "CGCAAGCAAUAUUACGUAGA", "self-splicing fitness (ln)": -1.73}
{"sequence.entry": "CUAAAGCAAUAUUACGAAGC", "self-splicing fitness (ln)": -2.06}
{"sequence.entry": "UUCGAGCAAUAUUACGGGAU", "self-splicing fitness (ln)": -2.05}
{"sequence.entry": "UAGAAGCAAUAUUACGGAAA", "self-splicing fitness (ln)": -1.41}
{"sequence.entry": "AUAAAGCAAUAUUACGGCAU", "self-splicing fitness (ln)": -0.0243}
{"sequence.entry": "AGCUAGCAAUAUUACGCAGG", "self-splicing fitness (ln)": -3.93}
{"sequence.entry": "UUUGAGCAAUAUUACGCGAU", "self-splicing fitness (ln)": -2.19}

Enquiry: // query self-splicing fitness (ln) value for entry GAGAAGCAAUAUUACGAUGU
Return: -0.819

###

- test.method.notes: self-splicing fitness, log relative to wild type (ln ratio); higher = more splicing; Tetrahymena group I intron in knt gene, E. coli kanamycin selection, DiMSum; sequences stand for … in CUCUCU…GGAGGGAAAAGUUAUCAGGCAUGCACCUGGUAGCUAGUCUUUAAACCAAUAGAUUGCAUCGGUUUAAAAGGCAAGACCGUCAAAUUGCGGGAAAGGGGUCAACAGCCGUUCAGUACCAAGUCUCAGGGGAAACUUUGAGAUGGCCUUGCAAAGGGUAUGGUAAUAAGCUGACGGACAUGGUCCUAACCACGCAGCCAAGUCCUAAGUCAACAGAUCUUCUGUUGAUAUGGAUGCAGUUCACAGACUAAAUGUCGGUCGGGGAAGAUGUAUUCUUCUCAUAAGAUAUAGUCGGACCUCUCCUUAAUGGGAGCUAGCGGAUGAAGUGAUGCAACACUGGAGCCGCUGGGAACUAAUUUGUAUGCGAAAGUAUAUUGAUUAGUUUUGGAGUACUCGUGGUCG
- stated.conditions: 37 °C
Decide by self-splicing fitness (ln): equal to or exceeding -0.4 means label 1, less means label 0.

Here's what some known entries look like.
{"sequence.entry": "UGAGAGCAAUAUUACGUAUU", "discrete.label": "label 0"}
{"sequence.entry": "AUCUAGCAAUAUUACGCGUC", "discrete.label": "label 0"}
{"sequence.entry": "GCUAAGCAAUAUUACGCCAC", "discrete.label": "label 0"}
{"sequence.entry": "AAUGAGCAAUAUUACGUUUC", "discrete.label": "label 0"}

Enquiry: // inclusive: self-splicing fitness (ln) at least -0.4? input: GUAGAGCAAUAUUACGGCAU
Return: label 1

Enquiry: Same again, this time with ACAUAGCAAUAUUACGGUCU
Return: label 0

Enquiry: Same again, this time with CUAAAGCAAUAUUACGGAUG
Return: label 1

Enquiry: Same again, this time with AAUAAGCAAUAUUACGGCAA
Return: label 1

###

- test.method.notes: self-splicing fitness, log relative to wild type (ln ratio); higher = more splicing; Tetrahymena group I intron in knt gene, E. coli kanamycin selection, DiMSum; sequences stand for … in CUCUCU…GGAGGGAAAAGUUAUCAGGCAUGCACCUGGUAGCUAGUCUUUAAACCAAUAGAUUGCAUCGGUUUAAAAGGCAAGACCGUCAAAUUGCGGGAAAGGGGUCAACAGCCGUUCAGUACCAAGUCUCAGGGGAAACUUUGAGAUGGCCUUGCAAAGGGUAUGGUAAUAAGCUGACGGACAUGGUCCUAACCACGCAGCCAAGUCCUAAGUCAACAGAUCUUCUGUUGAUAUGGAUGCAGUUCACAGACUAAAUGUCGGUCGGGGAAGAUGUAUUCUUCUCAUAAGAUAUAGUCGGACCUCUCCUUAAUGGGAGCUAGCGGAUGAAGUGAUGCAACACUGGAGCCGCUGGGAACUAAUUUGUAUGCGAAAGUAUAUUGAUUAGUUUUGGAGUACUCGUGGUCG
- stated.conditions: 30 °C
Please provide measured self-splicing fitness (ln) for the entries that follow.
Numbers only.

Example results:
{"sequence.entry": "UGUCAGCAAUAUUACGCACU", "self-splicing fitness (ln)": -1.07}
{"sequence.entry": "GUUUAGCAAUAUUACGUGUG", "self-splicing fitness (ln)": -2.08}
{"sequence.entry": "CGCCAGCAAUAUUACGCGUU", "self-splicing fitness (ln)": -2.03}
{"sequence.entry": "AGCUAGCAAUAUUACGUGCC", "self-splicing fitness (ln)": -2.52}
{"sequence.entry": "AAUAAGCAAUAUUACGUGUA", "self-splicing fitness (ln)": -2.16}
{"sequence.entry": "GUUUAGCAAUAUUACGAUUU", "self-splicing fitness (ln)": -0.709}
{"sequence.entry": "CAGUAGCAAUAUUACGAUCU", "self-splicing fitness (ln)": -1.52}
{"sequence.entry": "AGACAGCAAUAUUACGGAAA", "self-splicing fitness (ln)": -3.32}

I have 3 sequences here; please give me self-splicing fitness (ln) for each one.
1. CCUCAGCAAUAUUACGGAUA
2. AGGGAGCAAUAUUACGUGCG
3. UGUAAGCAAUAUUACGUUUC

Return:
1: -1.87; 2: -2.99; 3: -3.11

I have 5 sequences here; please give me self-splicing fitness (ln) for each one.
1. GAGUAGCAAUAUUACGAACC
2. CGCCAGCAAUAUUACGUUGC
3. AACCAGCAAUAUUACGGCUA
4. CUCCAGCAAUAUUACGCGUC
5. CACAAGCAAUAUUACGGUCC

Return:
1. -1.17
2. -3.95
3. -0.197
4. -3.46
5. -2.99
